In this section we review reported IC50 (µg/mL), pseudovirus neutralization values for a set of binders.
biological target: HIV-1 Env of isolate 94KE105 (pseudovirus) (HIV-1); assay: cell-based or functional assay
Property: IC50 (µg/mL), pseudovirus neutralization

Binder | Unit | Result Value
PGT-125 (5123_A06) (antibody, V domains shown) VH: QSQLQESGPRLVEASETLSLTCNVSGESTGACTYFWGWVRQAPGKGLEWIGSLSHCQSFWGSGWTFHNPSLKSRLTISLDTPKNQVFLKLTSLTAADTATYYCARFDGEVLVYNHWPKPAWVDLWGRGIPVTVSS VL: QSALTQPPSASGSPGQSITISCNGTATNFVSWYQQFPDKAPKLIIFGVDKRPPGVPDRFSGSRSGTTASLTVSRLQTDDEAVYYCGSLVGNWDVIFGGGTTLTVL | µg/mL | 0.004
PGT-123 (4858_P08) (antibody, V domains shown) VH: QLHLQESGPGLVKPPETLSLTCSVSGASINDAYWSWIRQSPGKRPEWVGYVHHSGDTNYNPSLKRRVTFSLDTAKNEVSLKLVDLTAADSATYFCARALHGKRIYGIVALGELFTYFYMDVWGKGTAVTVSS VL: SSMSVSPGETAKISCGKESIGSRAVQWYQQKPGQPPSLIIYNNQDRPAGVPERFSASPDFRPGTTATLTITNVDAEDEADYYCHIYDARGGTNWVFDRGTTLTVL | µg/mL | 0.024
PGT-126 (5141_B17) (antibody, V domains shown) VH: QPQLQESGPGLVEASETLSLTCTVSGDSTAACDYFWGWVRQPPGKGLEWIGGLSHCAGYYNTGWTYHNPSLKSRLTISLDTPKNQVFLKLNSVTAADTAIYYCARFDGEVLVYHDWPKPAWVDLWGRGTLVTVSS VL: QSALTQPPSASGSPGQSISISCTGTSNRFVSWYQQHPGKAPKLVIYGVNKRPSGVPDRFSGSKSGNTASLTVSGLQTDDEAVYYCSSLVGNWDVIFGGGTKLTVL | µg/mL | 0.006
PGT-127 (5145_B14) (antibody, V domains shown) VH: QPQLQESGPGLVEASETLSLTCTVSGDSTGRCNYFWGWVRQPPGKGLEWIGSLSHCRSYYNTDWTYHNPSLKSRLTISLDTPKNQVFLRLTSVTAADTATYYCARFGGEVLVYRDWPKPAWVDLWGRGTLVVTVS VL: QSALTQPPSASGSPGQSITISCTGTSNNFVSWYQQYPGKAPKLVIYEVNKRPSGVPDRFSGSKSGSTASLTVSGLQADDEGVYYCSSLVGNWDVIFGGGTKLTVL | µg/mL | 0.023
